Could you please report measured CC50 for the items listed next?
# assay_text: Toxic concentration, in CEM cells estimated by the XTT assay
# Type: toxicity, cell-based
# cond: human, CCRF-CEM (CEM) cells; read-out: TC50 (the source's name)

Below, each entry is followed by its recorded CC50 result.
[N-]=[N+]=NCC(Cn1cnc2c(O)nc(N)nc21)OCP(=O)(O)O (single isomer, unassigned; form 2) :: > 1000 µM
Nc1nc(O)c2ncn(CC(CCl)OCP(=O)(O)O)c2n1 (single isomer, unassigned; form 1) :: > 500 µM
C=C[C@@H](Cn1cnc2c(O)nc(N)nc21)OCP(=O)(O)O :: > 1000 µM

Batch request: CC50 per item, same order as input.
1. Nc1nc(O)c2ncn(CC(CF)OCP(=O)(O)O)c2n1 (single isomer, unassigned; form 2)
2. Nc1nc(O)c2ncn(C[C@H](OCP(=O)(O)O)C3CC3)c2n1

// result
["> 500 µM", "> 1000 µM"]
